# System: Hippocampus
# EXPERIMENT_SUMMARY: Decrease in amplitude of populations spikes in Sprague-Dawley rat hippocampal CA1 region
# Format: functional, tissue-based

- COMPOUND_STRUCTURE_STRING: "Cn1c(=O)c2c(ncn2CCCC(=O)N2CCCCC2=O)n(C)c1=O"
  EC50: "60 nM"

---

# Tested on: Hippocampus
# EXPERIMENT_SUMMARY: Cognitive enhancing effect in Sprague-Dawley rat hippocampal CA1 region assessed as increase in amplitude of populations spikes
# Type: functional, tissue-based
pEC50: −log10 of the molar value.

- COMPOUND_STRUCTURE_STRING: "Cn1c(=O)c2c(ncn2CCCC(=O)N2CCCCCC2=O)n(C)c1=O"
  TEST_TARGET: "Hippocampus"
  pEC50: 5.70
